Catalogue of growth values
- System: TK-10 renal
- Measurement notes: NCI-60 one-dose screen, 48 h (100 = growth as untreated, 0 = no growth, -100 = all killed)
- Cond: 10 µM unless noted
Compounds without any hit were thinned out: in the full panel of roughly 83,000, 20% have a hit. Active and inactive are the calls of the source. How the source made its calls: active means growth percent below 10; inactive means the rest.

Study these solved cases before continuing.
N#Cc1c(-c2ccc(Br)cc2)nc2c(N=Nc3ccc(S(N)(=O)=O)cc3)c(N)nn2c1N; 73.2% (inactive)
O=C1CCC(C(=O)N/N=C/c2cc(F)ccc2F)N1 (stereo not given); 104% (inactive)
COC(=O)/C=C1/SC(=NCc2ccccc2)N(CCc2c[nH]c3ccccc23)C1=O; 129% (inactive)
Cc1cc2oc(/C=C/c3ccccc3)cc(=O)c2c(C)c1Cl; 91.6% (inactive)

As a next step, examine the compound that follows.
growth for TK-10 renal with input Cc1ccc(-c2csc(NC(=O)CSc3nc(N)cc(N)n3)n2)cc1 equals 78.9% (inactive)

---

- Tested on: OVCAR-4 ovarian
- Measurement notes: NCI-60 one-dose screen, 48 h
- Cond: 10 µM unless noted
About 83,000 compounds went through this panel and 20% of them were active in at least one assay; those are over-represented in the sample as a whole. The source made the active and inactive calls. Rule for the calls: active = growth percent below 10; inactive = the rest.
Allowed answers: true (active), false (inactive)

Look over these answered cases.
O=C(NCc1ccc(Cn2c(=O)sn(-c3ccccc3)c2=O)cc1)OCc1ccc2cccc(O)c2n1; true
O=C(CCCCCCCC(=O)N1CCCCC1)N1CCCCC1; false

With those in mind, consider the next compound.
What classification did O=c1cc(CNc2cc(F)cc(F)c2)c2ccc(I)cc2[nH]1 end up with in this test? false

---

- System: M14 melanoma
- Measurement notes: NCI-60 one-dose screen, 48 h
- Cond: 10 µM unless noted
This is part of a sample that, as a whole, favours compounds with a hit. Of some 83,000 tested, about 20% had one in any assay. Calls of active or inactive are those of the source. Rule for the calls: active = growth percent below 10; inactive = the rest.
Allowed answers: Y = active, N = inactive

Look over these answered cases.
CS(=O)(=O)Nc1cc(-c2ccc3ncnc(Nc4ccc5c(cnn5Cc5ccccc5F)c4)c3c2)cnc1Cl; N
COc1ccc(C2CC(n3ccnc3)c3cc(OC)c(OC)c(OC)c32)cc1O (stereo not given); N
COc1ccc(Oc2ccc(/C=C/C(=O)c3ccc(OC)c(OC)c3)cc2)cc1; N
N=C(N)c1ccc(-c2ccc(-c3ccccc3)o2)o1; N
Cn1cc(-c2nc3c(F)cc4[nH]ncc4c3c3c2CCCC3)c(C(F)(F)F)n1; N
COCCn1cc(-c2nc(-c3cn(CCOC)c4ncccc34)cs2)c2cc(F)ccc21; N

What classification did COc1cc(-c2ccc[nH]2)[nH]c1/C=C1\N=C(C)C(CC(=O)OCC(C)(C)C)=C1C end up with in this test? Y

What classification did O=C1OCC2=C1C(c1ccccc1)c1cc3c(cc1N2CCO)OCCO3 (stereo not given) end up with in this test? Y

What classification did C=CN(C(=O)N1CCN(c2cc3c(cc2F)c(=O)c(C(=O)O)cn3C2CC2)CC1)c1nc(-c2ccccc2)cs1 end up with in this test? N

What classification did CC/C(=C(\c1ccc(Cl)cc1)c1ccc(OCCN2CCCCC2)cc1)c1ccc(O)cc1 end up with in this test? Y

---

- Tested on: RXF 393 renal
- Measurement notes: NCI-60 one-dose screen, 48 h (100 = growth as untreated, 0 = no growth, -100 = all killed)
- Cond: 10 µM unless noted
Compounds without any hit were thinned out: in the full panel of roughly 83,000, 20% have a hit.
Quantity measured: growth (%)
Record the value in %, omitting the unit from your answer.

Study these solved cases before continuing.
O=c1cc(CP(=O)(O)O)c2cc(O)c(-c3ccccc3)cc2o1; 105
Cc1cc(C(=O)CCCC(=O)c2cc(C)c(O)c(C)c2)cc(C)c1O; 84.2

Reported growth ( N#Cc1c(-c2ccc(Cl)cc2)nc(NN=Cc2ccc[nH]2)nc1N1CCOCC1 ) = 63.1

Reported growth ( Cc1ccc(S(=O)(=O)N2CCCN(c3nc(-c4ccccc4)nc4nc(-c5ccccc5)oc34)CC2)cc1 ) = 128

---

- System: MDA-MB-435 melanoma
- Measurement notes: NCI-60 one-dose screen, 48 h
- Cond: 10 µM unless noted
Compounds without any hit were thinned out: in the full panel of roughly 83,000, 20% have a hit. The source made the active and inactive calls. The calls were made as follows: active = growth percent below 10; inactive = the rest.
Allowed answers: active, inactive

Nc1ncnc2c1N=C(c1ccc(F)cc1)CC(c1cccc(Nc3ccnc4cc(Cl)ccc34)c1)N2 (stereo not drawn); inactive
CC1(C)CC[C@]23CC[C@]4(C)[C@H](CC[C@@H]5[C@@]6(C)CCNCC(C)(C)[C@@H]6CC[C@]54C)[C@H]2[C@H]1OC3; inactive

With those in mind, consider the next molecule.
What classification did c1cc(OCCN2CCCC2)ccc1CNc1ccc2nc(CCC3CCCCC3)[nH]c2c1 end up with in this test? active

---

- System: NCI-H226 lung
- Measurement notes: NCI-60 one-dose screen, 48 h
- Cond: 10 µM unless noted
- Experimental: Growth inhibition of the NCI-H226 human Non-Small Cell Lung tumor cell line is measured as a screen for anti-cancer activity. Cells are grown in 96 well plates and exposed to the test compound for 48 hours. Compounds are tested at a single concentration, which is 10^-5 M for most compounds. The reported endpoint is percent growth (GI% or GIPRCNT), where numbers from 0 - 100% represent growth inhibition, and numbers from -100% - 0 represent cell death. […]
About 83,000 compounds went through this panel and 20% of them were active in at least one assay; those are over-represented in the sample as a whole. Calls of active or inactive are those of the source. The calls were made as follows: active = growth percent below 10; inactive = the rest.
Allowed answers: active, inactive

O=C(O)CC(C(=O)O)/C(=C\c1ccccc1)c1ccccc1 (configuration not stated); inactive
CCN(CC)C(=O)CC1=C(C)/C(=C/c2[nH]c(-c3ccc[nH]3)cc2OC)N=C1C; inactive
O=c1c2ccccc2n(C[C@H]2CO2)c2ccccc12; inactive

What classification did CNC(=O)NCC1OC(n2cnc3c(NC(=O)Nc4ccccc4)ncnc32)C2OC(=O)CC12 (configuration not stated) end up with in this test? inactive

---

- Tested on: SNB-75 CNS
- Measurement notes: NCI-60 one-dose screen, 48 h (100 = growth as untreated, 0 = no growth, -100 = all killed)
- Cond: 10 µM unless noted
About 83,000 compounds went through this panel and 20% of them were active in at least one assay; those are over-represented in the sample as a whole. Calls of active or inactive are those of the source. Rule for the calls: active = growth percent below 10; inactive = the rest.
Catalogue of growth values

Study these solved cases before continuing.
Cc1ccc(NC(=O)c2cc3ccccc3cc2O)c(C)c1; 96.8% (inactive)
Cc1c2cnccc2c(C)c2c1c1cc(CO)ccc1n2C; -45.1% (active)
N#C/C(=C\c1ccc(-c2cccc(Cl)c2)o1)C(=O)Nc1ncc(Cc2ccc(Cl)cc2)s1; -3.05% (active)

Reported growth ( Oc1c(I)cc(I)cc1CN(Cc1ccccn1)Cc1ccccn1 ) = 30% (inactive)

Reported growth ( CN(C)Cc1cc(C(C)(C)C)cc(Br)c1O ) = 91.5% (inactive)

Reported growth ( CC(=O)c1ccc(-n2cc(CN3CCN(c4cc5c(cc4F)c(=O)c(C(=O)O)cn5C4CC4)CC3)nn2)cc1 ) = 92.7% (inactive)

Reported growth ( CNC(=O)NCC1OC(n2cnc3c(NC(=O)Nc4ccccc4)ncnc32)C2OC(=O)CC12 (stereo not given) ) = 96.7% (inactive)

Reported growth ( CNC(=O)c1cc(Oc2ccc3c(c2)sc2nc(-c4ccc(Cl)c(C(F)(F)F)c4)cn23)ccn1 ) = 81.4% (inactive)

Reported growth ( O=C(NNc1nc2cc(F)ccc2n2c(CN3CCOCC3)ccc12)c1ccccc1 ) = 46.1% (inactive)

Reported growth ( CCOC(=O)C/C(=N\Nc1cc(=O)[nH]c2ccc(OC)cc12)C(=O)OCC ) = 94.6% (inactive)

---

- Tested on: SNB-19 CNS
- Measurement notes: NCI-60 one-dose screen, 48 h
- Cond: 10 µM unless noted
About 83,000 compounds went through this panel and 20% of them were active in at least one assay; those are over-represented in the sample as a whole. Active and inactive are the calls of the source. How the source made its calls: active means growth percent below 10; inactive means the rest.
Allowed answers: Yes (active), No (inactive)

Look over these answered cases.
O=c1ccc2ccc(OCCN3CCCCC3)cc2o1; No
O=C1/C(=C/c2ccc(Cl)cc2)CN(C(=O)C(Cl)Cl)C/C1=C\c1ccc(Cl)cc1; Yes
C=C1C(=O)O[C@H]2[C@H]1CC/C(COC(=O)NCc1ccc(Cn3c(=O)sn(-c4ccc(I)cc4)c3=O)cc1)=C\CC[C@@]1(C)O[C@@H]21; No
CCOC(=O)c1c(C)nc2c(c1N)C(=O)C(=O)N2Cc1ccc(OC)cc1; No

What classification did Cc1oc(-c2ccc(Cl)cc2)nc1C1=NN(C(=O)c2ccncc2)C(c2ccccc2)C1 (configuration not stated) end up with in this test? No

What classification did COc1ccccc1/C=C/C(=O)Nc1ccc(F)cc1 end up with in this test? No

What classification did O=S(=O)(N=C1C(Cl)=C(Cl)C(=NS(=O)(=O)c2ccccc2)C(Cl)=C1Cl)c1ccccc1 end up with in this test? No

What classification did CS(=O)(=O)Nc1cc(-c2ccc3ncnc(Nc4ccc5c(cnn5Cc5ccncc5)c4)c3c2)cnc1Cl end up with in this test? No

What classification did CC(=O)N1N=C(c2ccc(Nc3nc(Nc4ccc(F)cc4)nc(Nc4ccc(F)cc4)n3)cc2)CC1c1ccc(N(C)C)cc1 (configuration not stated) end up with in this test? No

What classification did CCCCNC(=O)c1ccc2c(c1)nc(-c1ccccc1)n2C1CCCCC1 end up with in this test? No

What classification did FC(F)(F)c1[nH]ncc1-c1nc2ccc3[nH]ncc3c2c2c1CCCC2 end up with in this test? No

What classification did O=c1c2ccccc2n(C[C@H]2CO2)c2ccccc12 end up with in this test? No

What classification did COc1ccc(C(c2cc(OC)c(OC)c(OC)c2)N2CCCCC2)cc1 (configuration not stated) end up with in this test? No

What classification did O=C1NC(=O)C(c2coc3cc(Br)ccc23)=C1c1c[nH]c2ccccc12 end up with in this test? No

What classification did COCCOC(C)C(/C=N/NC(N)=S)=N/NC(N)=S (configuration not stated) end up with in this test? No

What classification did COc1ccc(N/N=C/c2cn(-c3ccc(C(=O)O)cc3)nc2-c2cc3ccccc3oc2=O)cc1 end up with in this test? No
